Data provenance is PubChem BioAssay AID1919003.

- Tested on: 786-0 complex spheroids with HUVEC/MSC, growth % test/control
- Experimental details: Anticancer human tumor 786-0 cell line growth inhibition [AhR];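 further: compound exposure lasted seven days before the read-out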
- Run parameters: second compound 1 µM; first compound 0.0316 µM; hits give low values
Kindly supply the reported viability, T/C values for the records listed here.
// units = %; emit number, no label

For record CC1COCCN1c1cc(C2(S(C)(=N)=O)CC2)nc(-c2ccnc3[nH]ccc23)n1 (configuration not stated) + CC(CO)NC(=O)c1cc(-c2ccc(Cl)cc2)nn(-c2cnn(C)c2)c1=O the listed viability, T/C is 108

For record COc1cccc2c1C(=O)c1c(O)c3c(c(O)c1C2=O)CC(O)(C(=O)CO)CC3OC1CC(N)C(O)C(C)O1 (configuration not stated) + CC(CO)NC(=O)c1cc(-c2ccc(Cl)cc2)nn(-c2cnn(C)c2)c1=O the listed viability, T/C is 54.3

For record COc1cc(C2c3cc4c(cc3C(OC3OC5COC(C)OC5C(O)C3O)C3COC(=O)C23)OCO4)cc(OC)c1O (configuration not stated) + CC(CO)NC(=O)c1cc(-c2ccc(Cl)cc2)nn(-c2cnn(C)c2)c1=O the listed viability, T/C is 79.1

For record O=C(c1cc(Cc2n[nH]c(=O)c3ccccc23)ccc1F)N1CCN(C(=O)C2CC2)CC1 + Cc1cncc(-c2nc(NCCc3c[nH]c4ccccc34)c3ncn(C(C)C)c3n2)c1 the listed viability, T/C is 112

For record O=C(C=Cc1cccc(S(=O)(=O)Nc2ccccc2)c1)NO + CC(CO)NC(=O)c1cc(-c2ccc(Cl)cc2)nn(-c2cnn(C)c2)c1=O the listed viability, T/C is 100

For record Cn1ncnc1C1c2n[nH]c(=O)c3cc(F)cc(c23)NC1c1ccc(F)cc1 (configuration not stated) + CC(CO)NC(=O)c1cc(-c2ccc(Cl)cc2)nn(-c2cnn(C)c2)c1=O the listed viability, T/C is 107

For record O=C(c1cc(Cc2n[nH]c(=O)c3ccccc23)ccc1F)N1CCN(C(=O)C2CC2)CC1 + Cc1ccccc1N=Nc1ccc(NC(=O)c2ccnn2C)c(C)c1 the listed viability, T/C is 100

For record CC1COCCN1c1cc(-c2ccnn2C)c2ccnc(-c3ccn[nH]3)c2n1 (configuration not stated) + Cc1cncc(-c2nc(NCCc3c[nH]c4ccccc34)c3ncn(C(C)C)c3n2)c1 the listed viability, T/C is 100

For record COc1ccc([C@@H](O)c2cc(-c3ncnc4cc(N5CCOCC5)ccc34)c(F)cc2Cl)nn1 + Cc1ccccc1N=Nc1ccc(NC(=O)c2ccnn2C)c(C)c1 the listed viability, T/C is 86.4

For record CC(C)c1c(-c2ccccc2)nc2c(C#N)c[nH]n2c1=O + Cc1ccccc1N=Nc1ccc(NC(=O)c2ccnn2C)c(C)c1 the listed viability, T/C is 94.6

For record CC[C@@]1(O)C(=O)OCc2c1cc1n(c2=O)Cc2cc3c(CN(C)C)c(O)ccc3nc2-1 + Cc1ccccc1N=Nc1ccc(NC(=O)c2ccnn2C)c(C)c1 the listed viability, T/C is 57.3

For record NS(=O)(=O)OCC1CC(n2ccc3c(NC4CCc5ccccc54)ncnc32)CC1O (configuration not stated) + Cc1cncc(-c2nc(NCCc3c[nH]c4ccccc34)c3ncn(C(C)C)c3n2)c1 the listed viability, T/C is 103
